- targetOrSystem: MMP-13 (Homo sapiens, UniProt P45452)
- test: MMP-13 inhibition (thiopeptide or fluorescent peptide substrate assay)
- Assay type: biochemical
- studyConditions: read-out: MMP-13 % inhibition; footnote: 1µM
Answer not fulfilled if inhibition at 1 µM is under 60%, and fulfilled if it is 60% or more.

[[record]]
compound = "COc1ccc(S(=O)(=O)N(Cc2cccnc2)c2c(C(=O)O)cccc2C(=O)NO)cc1 [Example 374]"
class = "not fulfilled"

[[record]]
compound = "COc1ccc(S(=O)(=O)N(CC(=O)OCc2ccccc2)c2c(C)cccc2C(=O)NO)cc1 [Example 385]"
class = "fulfilled"

[[record]]
compound = "COc1ccc(-c2ccc(S(=O)(=O)N(Cc3cccnc3)c3c(C)cccc3C(=O)NO)cc2)c(OC)c1 [Example 411]"
class = "not fulfilled"

[[record]]
compound = "CCOC(=O)CCCN(c1c(C)cccc1C(=O)NO)S(=O)(=O)c1ccc(OC)cc1 [Example 383]"
class = "not fulfilled"

[[record]]
compound = "Cc1cc(Br)cc(C(=O)NO)c1N(Cc1ccccc1)S(=O)(=O)c1ccc(OCc2ccccc2)cc1 [Example 308]"
class = "not fulfilled"

[[record]]
compound = "COc1ccc(S(=O)(=O)N(CCO)c2c(C)cccc2C(=O)NO)cc1 [Example 388]"
class = "not fulfilled"


====

- targetOrSystem: MMP-9 (Homo sapiens, UniProt P14780)
- Sequence (P14780 94-707): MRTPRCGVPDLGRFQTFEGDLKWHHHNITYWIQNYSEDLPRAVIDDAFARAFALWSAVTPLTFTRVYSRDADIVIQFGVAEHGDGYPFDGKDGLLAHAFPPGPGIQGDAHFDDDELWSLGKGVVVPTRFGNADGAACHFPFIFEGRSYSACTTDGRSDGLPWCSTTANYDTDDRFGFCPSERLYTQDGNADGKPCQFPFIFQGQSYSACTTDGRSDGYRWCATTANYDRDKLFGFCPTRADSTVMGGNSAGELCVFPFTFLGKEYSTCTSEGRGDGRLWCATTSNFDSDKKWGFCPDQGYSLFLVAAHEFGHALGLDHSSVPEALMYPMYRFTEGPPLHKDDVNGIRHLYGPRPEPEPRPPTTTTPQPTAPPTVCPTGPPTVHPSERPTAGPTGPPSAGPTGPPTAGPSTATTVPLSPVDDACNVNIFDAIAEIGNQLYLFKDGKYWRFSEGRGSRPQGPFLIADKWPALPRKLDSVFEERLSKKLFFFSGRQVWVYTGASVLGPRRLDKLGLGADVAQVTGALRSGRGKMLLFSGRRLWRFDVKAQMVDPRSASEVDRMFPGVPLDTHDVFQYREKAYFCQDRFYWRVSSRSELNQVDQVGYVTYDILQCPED
- test: MMP-9 inhibition (thiopeptide or fluorescent peptide substrate assay)
- Type: biochemical
- studyConditions: read-out: MMP-9 IC50
pIC50: −log10 of the molar value. Counter-ions that a name gives are not always drawn.
resultType: pIC50

[[record]]
molecule = "CCCCOc1ccc(S(=O)(=O)N(Cc2ccccc2)c2c(C)cc(C)cc2C(=O)NO)cc1"
quantitativeresult = 6.84

[[record]]
molecule = "CCN(CC)Cc1cccc(C(=O)NO)c1N(C)S(=O)(=O)c1ccc(OC)cc1"
quantitativeresult = 8.00

[[record]]
molecule = "COc1ccc(S(=O)(=O)N(Cc2cccnc2)c2c(C)cc(-c3ccsc3)cc2C(=O)NO)cc1 [Example 398, hydrochloride salt]"
quantitativeresult = 8.70

[[record]]
molecule = "COc1ccc(S(=O)(=O)N(Cc2ccccc2)c2c(OCCCO)cccc2C(=O)NO)cc1"
quantitativeresult = 7.80

[[record]]
molecule = "COc1ccc(S(=O)(=O)N(Cc2ccccc2)c2c(OCCO)cccc2C(=O)NO)cc1"
quantitativeresult = 7.51

[[record]]
molecule = "COc1ccc(S(=O)(=O)N(Cc2cccnc2)c2c(C(=O)NO)cc(OC)c(OC)c2OC)cc1"
quantitativeresult = 7.96

[[record]]
molecule = "COc1ccc(S(=O)(=O)N(CC(=O)N2CCN(C)CC2)c2c(C)cccc2C(=O)NO)cc1"
quantitativeresult = 7.02

[[record]]
molecule = "CCCCCCCCN(c1c(CN2CCN(C)CC2)cccc1C(=O)NO)S(=O)(=O)c1ccc(OC)cc1"
quantitativeresult = 8.62

[[record]]
molecule = "COc1ccc(-c2ccc(-c3cc(C)c(N(Cc4cccnc4)S(=O)(=O)c4ccc(OC)cc4)c(C(=O)NO)c3)cc2)cc1 [Example 399, hydrochloride salt]"
quantitativeresult = 7.35

[[record]]
molecule = "COc1ccc(S(=O)(=O)N(Cc2ccc(CN(C)C)cc2)c2c(C)cccc2C(=O)NO)cc1"
quantitativeresult = 8.54

[[record]]
molecule = "COc1ccc(S(=O)(=O)N2CCCCOc3cccc(C(=O)NO)c32)cc1"
quantitativeresult = 7.38

[[record]]
molecule = "COc1ccc(S(=O)(=O)N(Cc2ccccc2)c2cc(C)ccc2C(=O)NO)cc1"
quantitativeresult = 6.46

[[record]]
molecule = "COc1ccc(S(=O)(=O)N(Cc2cccnc2)c2c(C)cc(-c3cccnc3)cc2C(=O)NO)cc1"
quantitativeresult = 8.22

[[record]]
molecule = "COc1ccc(S(=O)(=O)N(C)c2c(CN3CCN(C)CC3)cc(Br)cc2C(=O)NO)cc1"
quantitativeresult = 8.85

[[record]]
molecule = "COc1ccc(S(=O)(=O)N(Cc2cccnc2)c2c(C)cc(-c3ccc(C(C)=O)s3)cc2C(=O)NO)cc1"
quantitativeresult = 8.43

[[record]]
molecule = "COc1ccc(S(=O)(=O)N(Cc2cccnc2)c2c(Br)cc(C)cc2C(=O)NO)cc1"
quantitativeresult = 7.11

[[record]]
molecule = "COc1ccc(S(=O)(=O)N(Cc2ccccc2)c2c(C)ccc(C)c2C(=O)NO)cc1"
quantitativeresult = 8.10

[[record]]
molecule = "COc1ccc(S(=O)(=O)N(Cc2ccsc2)c2c(CN3CCN(C)CC3)cccc2C(=O)NO)cc1"
quantitativeresult = 8.31

[[record]]
molecule = "COc1ccc(S(=O)(=O)N(Cc2cccnc2)c2c(C)cc(-c3ccco3)cc2C(=O)NO)cc1"
quantitativeresult = 8.15

[[record]]
molecule = "COc1ccc(S(=O)(=O)N(Cc2ccccc2)c2cc3ccccc3cc2C(=O)NO)cc1"
quantitativeresult = 6.56

[[record]]
molecule = "C#Cc1cc(C)c(N(Cc2ccccc2)S(=O)(=O)c2ccc(OC)cc2)c(C(=O)NO)c1"
quantitativeresult = 7.68

[[record]]
molecule = "COc1ccc(S(=O)(=O)N(Cc2ccccc2)c2c(C)cc(C)cc2C(=O)NO)cc1"
quantitativeresult = 7.68

[[record]]
molecule = "COc1ccc(S(=O)(=O)N(Cc2cccnc2)c2c(C)cc(Br)cc2C(=O)NO)cc1"
quantitativeresult = 7.62

[[record]]
molecule = "COc1ccc(S(=O)(=O)N(Cc2ccccc2)c2c(OCC(F)(F)F)cccc2C(=O)NO)cc1"
quantitativeresult = 7.54

[[record]]
molecule = "COCCOCOc1cccc(C(=O)NO)c1N(Cc1ccccc1)S(=O)(=O)c1ccc(OC)cc1"
quantitativeresult = 7.24

[[record]]
molecule = "COc1ccc(S(=O)(=O)N(Cc2ccncc2)c2c(C)cccc2C(=O)NO)cc1"
quantitativeresult = 8.08

[[record]]
molecule = "COc1ccc(S(=O)(=O)N(Cc2ccccc2)c2c(C(=O)NO)cc(OC)c(OC)c2OC)cc1"
quantitativeresult = 6.98

[[record]]
molecule = "COc1ccc(S(=O)(=O)N(Cc2ccc(Br)cc2)c2c(C)cc(C)cc2C(=O)NO)cc1"
quantitativeresult = 7.74

[[record]]
molecule = "COc1ccc(S(=O)(=O)N(Cc2ccccc2)c2c(OC(C)(C)C(=O)NO)cccc2C(=O)NO)cc1"
quantitativeresult = 8.30

[[record]]
molecule = "CCN(CC)Cc1ccc(CN(c2c(C)cccc2C(=O)NO)S(=O)(=O)c2ccc(OC)cc2)cc1"
quantitativeresult = 8.33

[[record]]
molecule = "COc1ccc(S(=O)(=O)N(Cc2cccnc2)c2c(C(=O)NO)cccc2C(=O)OC(C)(C)C)cc1"
quantitativeresult = 7.92

